Entry source: PubChem BioAssay AID1963867

Test system: KRAS-mutant PDC tumor spheroid with HUVEC/MSC, viability;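 further: spheroids exposed to agents for seven days before reading; 100% = DMSO vehicle wells so lower means fewer viable cells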
Experiment: Anticancer human tumor 327498-153-R-J2-PDC patient-derived uterine carcinosarcoma cell line growth inhibition [KRAS2]
Conditions: second compound 1 µM; first compound 3.16 µM; active compounds read low
The reader will find reported viability, T/C values listed item by item below.
Numeric only. Scale: %

Use these answered entries as a reference point.
Give viability, T/C for this entry on KRAS-mutant PDC tumor spheroid with HUVEC/MSC, viability: CC1(C)CCC(CN2CCN(c3ccc(C(=O)NS(=O)(=O)c4ccc(NCC5CCOCC5)c([N+](=O)[O-])c4)c(Oc4cnc5[nH]ccc5c4)c3)CC2)=C(c2ccc(Cl)cc2)C1 + CC1OCC2(CCN(c3cnc(Sc4ccnc(N)c4Cl)c(N)n3)CC2)C1N
25

Give viability, T/C for this entry on KRAS-mutant PDC tumor spheroid with HUVEC/MSC, viability: CCNC(=O)CC1N=C(c2ccc(Cl)cc2)c2cc(OC)ccc2-n2c(C)nnc21 (stereo not given) + CC1OCC2(CCN(c3cnc(Sc4ccnc(N)c4Cl)c(N)n3)CC2)C1N
17.8

Others:
Give viability, T/C for this entry on KRAS-mutant PDC tumor spheroid with HUVEC/MSC, viability: CC1(C)CCC(CN2CCN(c3ccc(C(=O)NS(=O)(=O)c4ccc(NCC5CCOCC5)c([N+](=O)[O-])c4)c(Oc4cnc5[nH]ccc5c4)c3)CC2)=C(c2ccc(Cl)cc2)C1 + C=CC(=O)N1CCN(c2nc(OCC3CCCN3C)nc3c2CCN(c2cccc4cccc(C)c24)C3)CC1CC#N
18.5

Give viability, T/C for this entry on KRAS-mutant PDC tumor spheroid with HUVEC/MSC, viability: O=C(c1cc(Cc2n[nH]c(=O)c3ccccc23)ccc1F)N1CCN(C(=O)C2CC2)CC1 + CC1OCC2(CCN(c3cnc(Sc4ccnc(N)c4Cl)c(N)n3)CC2)C1N
21.9

Give viability, T/C for this entry on KRAS-mutant PDC tumor spheroid with HUVEC/MSC, viability: COc1cc(Nc2ncc3c(n2)-c2ccc(Cl)cc2C(c2c(F)cccc2OC)=NC3)ccc1C(=O)O + C=CC(=O)N1CCN(c2nc(OCC3CCCN3C)nc3c2CCN(c2cccc4cccc(C)c24)C3)CC1CC#N
7.63
